- experimentalDetails: qHTS drug screen for cell cycle checkpoint inhibitors in PARPi-resistant BRCA-mutant ovarian cancer cell lines. (AID 1963452)
- appliedConditions: PEO1/OlaR viability, CellTiter-Glo luminescence, 96 h; measured here: PEO1 parental Z-AUC; stronger effect = lower value
Just a reminder that ties go to not met: only Z-AUC strictly below 0.4 counts as met.

compound=CCCS(=O)(=O)Nc1ccc(F)c(C(=O)c2c[nH]c3ncc(Cl)cc23)c1F discretelabel="not met"
compound=COc1cc(F)c(F)c(Nc2ccc(I)cc2F)c1NS(=O)(=O)C1(C[C@H](O)CO)CC1 discretelabel=met
compound=CCn1c(-c2nonc2N)nc2cnc(Oc3cccc(NC(=O)c4ccc(OCCN5CCOCC5)cc4)c3)cc21 discretelabel="not met"
compound=Cc1ccc(N(CC2=NCCN2)c2cccc(O)c2)cc1 discretelabel="not met"
compound=CCCc1nn(C)c2c(=O)[nH]c(-c3cc(S(=O)(=O)N4CCN(C)CC4)ccc3OCC)nc12 discretelabel="not met"
compound=COc1cc2c(cc1OC)CN(CCc1ccc(NC(=O)c3cccc4c(=O)c5cccc(OC)c5[nH]c34)cc1)CC2 discretelabel="not met"
compound=Nc1ncnc2nc(-c3ccc(N4CCOCC4)nc3)cc(-c3cccc(Br)c3)c12 discretelabel="not met"
compound=CC[C@H](Nc1ncnc2nc[nH]c12)c1nc2cccc(F)c2c(=O)n1-c1ccccc1 discretelabel="not met"
compound=O=C(Nc1nc2ccccc2n1CCN1CCOCC1)c1cccc([N+](=O)[O-])c1 discretelabel="not met"
compound=CCCC(CCC)C(=O)O discretelabel="not met"
compound=O=C(O)CCc1ccc(NCc2cccc(Oc3ccccc3)c2)cc1 discretelabel="not met"
compound="CCN(CC)CCCC(C)Nc1ccnc2cc(Cl)ccc12 (stereo not drawn)" discretelabel="not met"
compound=CS(=O)(=O)c1cccc(CNc2nc(Nc3ccc4c(c3)CCC(=O)N4)ncc2C(F)(F)F)c1 discretelabel=met
compound=OCCC#Cc1nc(-c2ccc(F)cc2)c(-c2ccncc2)n1CCCc1ccccc1 discretelabel="not met"
compound=Cc1oncc1C(=O)Nc1ccc(C(F)(F)F)cc1 discretelabel="not met"
compound=CC(C)c1onc(-c2c(Cl)cccc2Cl)c1COc1ccc(/C=C/c2cccc(C(=O)O)c2)c(Cl)c1 discretelabel=met
compound=Cc1c(CCOc2ccc(C(=O)O)cc2)c2cc(Cl)ccc2n1C(c1ccccc1)c1ccccc1 discretelabel="not met"
compound="OC(CCN1CCCCC1)(c1ccccc1)C1CC2C=CC1C2 (stereo not drawn)" discretelabel=met
compound=OCCn1cc(-c2cnc3nnn(Cc4ccc5ncccc5c4)c3n2)cn1 discretelabel=met
compound=CO[C@@H]1[C@H](N(C)C(=O)c2ccccc2)C[C@H]2O[C@]1(C)n1c3ccccc3c3c4c(c5c6ccccc6n2c5c31)C(=O)NC4 discretelabel=met
compound=c1ccc(-c2nn3c(c2-c2ccnc4cc(OCCN5CCOCC5)ccc24)CCC3)nc1 discretelabel=met
compound=CC(C)(N)C(=O)N[C@H](COCc1ccccc1)C(=O)N1CCC2(CC1)CN(S(C)(=O)=O)c1ccccc12 discretelabel="not met"
compound=C[C@]12CCC(=O)C=C1CC[C@@H]1[C@@H]2[C@@H](O)C[C@@]2(C)[C@H]1CC[C@]2(O)C(=O)CO discretelabel="not met"
compound=COc1nc(-c2ccc3c(c2)OCO3)n(-c2ccc(NC(=O)CSc3ccccc3)cc2)n1 discretelabel="not met"
compound="CC(c1cc2ccccc2s1)N(O)C(N)=O (stereo not drawn)" discretelabel=met
compound="COc1ccc2nc(S(=O)Cc3ncc(C)c(OC)c3C)[nH]c2c1 (stereo not drawn)" discretelabel="not met"
compound=COc1ccc(-c2c(-c3ccc(O)cc3O)n[nH]c2C)cc1 discretelabel="not met"
compound=CCOc1cc(N2CCC(O)CC2)ccc1Nc1ncc2c(n1)N(C)c1ccccc1C(=O)N2C discretelabel=met
compound=CCOc1ccn(-c2ccc(F)cc2)c(=O)c1C(=O)Nc1ccc(Oc2ccnc(N)c2Cl)c(F)c1 discretelabel=met
compound=NC(=O)c1cnccn1 discretelabel="not met"
compound=N#Cc1ccc(C(c2ccc(C#N)cc2)n2cncn2)cc1 discretelabel="not met"
compound=CC(C)C[C@H](NC(=O)[C@@H](O)[C@H](N)Cc1ccccc1)C(=O)O discretelabel=met
compound=Cc1cc2c(F)c(Oc3ncnn4cc(OC[C@@H](C)O)c(C)c34)ccc2[nH]1 discretelabel="not met"
compound="CCc1ccc(CCOc2ccc(CC3SC(=O)NC3=O)cc2)nc1 (stereo not drawn)" discretelabel=met
compound=S=C(NCc1ccc2c(c1)OCO2)N1CCN(c2ncnc3c2oc2ccccc23)CC1 discretelabel=met
compound=CC[C@@H](C)[C@H](NC(=O)[C@H](CC1CCCCC1)NC(=O)c1ccno1)C(=O)N1CCC2(CCc3ccccc32)CC1 discretelabel=met
